METHOD SUMMARY: small-molecule microarray binders of probe aLefty2, primary screen, biochemical, biotinylated probe, 635/667 nm fluorescence (AID 1094);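 note: score merges spot fluorescence near 667 nm with spot signal-to-noise ratio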
CONDITIONS: higher = more signal
// composite z-score lookup, one value per entry
OUTCOME MEASURE: composite z-score

COMPOUND: [N-]=[N+]=NCc1ccccc1[C@H]1OC(c2ccc(OCCCO)cc2)=N[C@@]1(CCS(=O)(=O)c1ccccc1)C(=O)NCCN1CCOCC1
EXPERIMENTAL VALUE: 0.181
//
COMPOUND: COC(=O)[C@@]1(Cc2ccc(F)cc2)[C@@H]2C(=CC(=O)[C@H]2CC(=O)C(=O)N2CCCC2)CN1C(=O)c1ccccc1
EXPERIMENTAL VALUE: 1.34
//
COMPOUND: COCCOC(=O)N1C(=O)[C@@]2(c3cc(C#CCNC(N)=O)ccc31)[C@H](C(=O)Nc1nc3ccccc3s1)[C@H]1C(=O)O[C@H](c3ccccc3)[C@H](c3ccccc3)N1[C@@H]2c1ccc(O)cc1
EXPERIMENTAL VALUE: -0.103
//
COMPOUND: C=CC[C@]1(C(=O)NCCN2CCOCC2)N=C(c2ccc(OCCCO)cc2)O[C@H]1c1ccccc1
EXPERIMENTAL VALUE: 0.0365
//
COMPOUND: C=C(C(=O)CC[C@@H](OC(=O)c1cccnc1)c1cccc(OCCO)c1)C(C)C
EXPERIMENTAL VALUE: -0.0962
//
COMPOUND: COc1ccc([Si](C)(C)[C@H]2[C@H](CCO)O[C@@]3(C(=O)N(Cc4ccccc4)c4ccc(NC(=O)[C@H](C)O)cc43)[C@@H]2C)cc1
EXPERIMENTAL VALUE: 0.0092
//
COMPOUND: C=CCNC(=O)[C@@H]1[C@H]2C(=O)O[C@H](c3ccccc3)[C@H](c3ccccc3)N2[C@H](c2ccc(OCCO)cc2)[C@@]12C(=O)Nc1ccc(C#CC3=CCCCC3)cc12
EXPERIMENTAL VALUE: -0.168
//
COMPOUND: Cc1ccc(S[C@]2(C(=O)NC(C)C)CC(=O)N(Cc3ccccc3)[C@@H]2c2ccc(CO)cc2I)cc1
EXPERIMENTAL VALUE: -0.102
//
COMPOUND: COCCOC(=O)N1C(=O)[C@@]2(c3cc(C#CCNC(N)=O)ccc31)[C@H](C(=O)N1CCN(c3ncccn3)CC1)[C@H]1C(=O)O[C@H](c3ccccc3)[C@H](c3ccccc3)N1[C@@H]2c1ccc(O)cc1
EXPERIMENTAL VALUE: -0.547
//
COMPOUND: [N-]=[N+]=NCc1ccccc1[C@H]1OC(c2ccc(OCCCO)cc2)=N[C@@]1(Cc1ccccc1N=[N+]=[N-])C(=O)O
EXPERIMENTAL VALUE: 0.359
//
COMPOUND: CCCCN1CC=CC23O[C@@H]4/C=C\CCC(C)OC(=O)C4[C@H]2C(=O)N(CCO)[C@@H]3C1=O (some centres undefined)
EXPERIMENTAL VALUE: 0.0469
//
COMPOUND: CC1C2C(CCCO)=CC(C3C(=O)N(C(N)=O)C(=O)C23)N1Cc1cccc(OC(F)(F)F)c1 (centres undefined)
EXPERIMENTAL VALUE: -0.139
//
COMPOUND: COCCCNC(=O)[C@@]1(CCC(=O)OC(C)(C)C)N=C(c2ccc(OCCCO)cc2)O[C@H]1c1ccccc1
EXPERIMENTAL VALUE: 0.0296
//
COMPOUND: COC(=O)C(CC#Cc1ccc2c(c1)[C@]1(C(=O)N2)[C@H](C(N)=O)[C@H]2C(=O)O[C@H](c3ccccc3)[C@H](c3ccccc3)N2[C@@H]1c1ccccc1OCCO)C(=O)OC
EXPERIMENTAL VALUE: -0.075
//
COMPOUND: COc1ccc(NN2C(C(O)c3ccc(F)cc3)C=CC3C(=O)N(C4CCCCC4)C(=O)C32)cc1 (centres undefined)
EXPERIMENTAL VALUE: 0.12
//
COMPOUND: O=C1NC(=O)C2C1C=CC(C(O)C1CCCCC1)N2Nc1ccccn1 (centres undefined)
EXPERIMENTAL VALUE: 0.0078
//
COMPOUND: C=C(C(=O)CC[C@@H](OC(=O)c1ccccc1-c1ccccc1C(=O)O)c1ccc(CO)o1)C(C)C
EXPERIMENTAL VALUE: -0.19
//
COMPOUND: CN1C(=O)C2CC=C(C3=CCO[C@@H]3[C@H]3CCCN3S(=O)(=O)c3ccccc3[N+](=O)[O-])CC2C1=O (some centres undefined)
EXPERIMENTAL VALUE: -0.203
//
COMPOUND: C=CCNC(=O)[C@H]1[C@@H]2C(=O)O[C@@H](c3ccccc3)[C@@H](c3ccccc3)N2[C@@H](c2ccc(O)cc2)[C@]12C(=O)N(C(=O)OCCOC)c1ccc(C#Cc3ccc(OC)cc3)cc12
EXPERIMENTAL VALUE: -0.0302
//
COMPOUND: CC(C)N1CC=CC23O[C@@H]4/C=C\CCCOC(=O)C4[C@H]2C(=O)N(C(C)CO)[C@@H]3C1=O (some centres undefined)
EXPERIMENTAL VALUE: -0.174
//
COMPOUND: O=C(N1CCOCC1)[C@]1(CCS(=O)(=O)c2ccccc2)N=C(c2ccc(OCCCO)cc2)O[C@@H]1c1ccccc1
EXPERIMENTAL VALUE: 0.227
//
COMPOUND: CN1C2C=C(c3ccc(CO)cc3)C(C3C(=O)N(C(N)=O)C(=O)C32)C1C1CC1 (centres undefined)
EXPERIMENTAL VALUE: -0.178
//
COMPOUND: COC(=O)Cn1c(C(=O)N(C)C)cc2c1C[C@H]1CN(C(=O)c3ccccc3)[C@@](Cc3ccccc3)(C(=O)OC)[C@@H]21
EXPERIMENTAL VALUE: 0.0022
//
COMPOUND: CCCC1(C(=O)OC)C=C2C(=C(C(C)C)C(=O)C2C)CN1 (centres undefined)
EXPERIMENTAL VALUE: 0.115
